assay: Oxidative breakdown with urea.H2O2 monitored by 1H NMR; type: physicochemical; conditions: in the presence of H2O2
value.kind: oxidative breakdown / cargo release (in words)

compound="CCC(C)(OCO[C@@H]1C[C@H](C)CC[C@H]1C(C)C)B1OC(C)(C)C(C)(C)O1 (stereo partly shown)" measurement="released smoothly"
compound="CCC(C)(OCOC1CCCCC1)B1OC(C)(C)C(C)(C)O1 (stereo not shown)" measurement="released smoothly"

----------
Entries and their yield of released product (1H NMR vs internal standard) values follow.
assay: Oxidative breakdown with urea.H2O2 monitored by 1H NMR; type: physicochemical; conditions: 6-12 equiv H2O2.urea, pH 8.0, CD3CN:D2O 5:1, rt
value.kind: yield of released product (1H NMR vs internal standard) (%)

molecule="CCC(C)(OCO[C@@H]1C[C@H](C)CC[C@H]1C(C)C)B1OC(C)(C)C(C)(C)O1 (stereo partly shown)" measurement=85
molecule="CCC(C)(OC(=O)c1ccccc1)B1OC(C)(C)C(C)(C)O1 (stereo not shown)" measurement=16
molecule="CCC(C)(OCC(C)C)B1OC(C)(C)C(C)(C)O1 (stereo not shown)" measurement=89
molecule="CCOC(C)(CCc1ccc(O[Si](C)(C)C(C)(C)C)cc1)B1OC(C)(C)C(C)(C)O1 (stereo not shown)" measurement=89
molecule="CC(C)C(OC1CCCCC1)B1OC(C)(C)C(C)(C)O1 (stereo not shown)" measurement=83
molecule="Cc1c(C)c2c(c(C)c1OC(=O)OC(C)(CCO[Si](C)(C)C(C)(C)C)B1OC(C)(C)C(C)(C)O1)CCC(C)(C)O2 (stereo not shown)" measurement=79
molecule="CCC(C)(OCOC1CCCCC1)B1OC(C)(C)C(C)(C)O1 (stereo not shown)" measurement=84
